Experiment: Chronic toxicity, one dose per day for five days
Type: in vivo
Settings: mouse, in vivo; mice, subchronic regimen; read-out: LD50 estimated from the slope of the toxicity curve
result_type: LD50 (mg/kg)
Dear colleague, please return just the value in mg/kg, with no unit written.

Data request: # query: LD50 of entry CCNCC[C@@H](O)CNCCCCNC[C@H](O)CCNCC [(HO)2 DEHSPM]
Data returned: 130

###

Test system: L1210 cells
Assay: L1210 growth inhibition, IC50 determinations
Assay type: cell-based, Murine
Conditions: Mus musculus, L1210, 48 h, L1210 cells, 48 h; read-out: IC50 48 h
result_type: IC50 (nM)
Express the result in nM but write the number alone.

Data request: Dear colleague, I am looking for the recorded IC50 of the following compound: CCNCCCCNCCCCNCCCCNCC [DEHSPM, Diethylhomospermine]
Data returned: 200

###

Tested on: polyamine transport apparatus
Assay: Competition with radiolabeled spermidine for uptake into L1210 cells (Ki)
Type: cell-based, Murine
Conditions: tetraamine analogues; L1210 cells, radiolabeled spermidine uptake; read-out: Ki, actual (Table 1)
Description: The same cell line was utilized to evaluate the tetraamines's competition with radiolabeled spermidine for the polyamine uptake apparatus (Ki). The Ki values here are the concentrations of drugs required to inhibit the uptake of radioactive spermidine transport by 50% (Table 1). Uptake Determinations. The polyamine derivatives were studied for their ability to compete with [^3 H]SPD or [^14 C]SPD for uptake into L1210 leukemia cells in vitro. […]
Measured pKi, listed per entry for reference.
Entry type: numeric. Quantity: pKi, the -log10 of concentration in molar units.

Here are 2 molecules together with their reported answers.
# smiles_entry, assayed_target, pKi
records = [
    ("CCNCCCNCCCNCCCN", "polyamine transport apparatus", 5.11),
    ("CCNCCCCNCCCCNCCCNCC", "polyamine transport apparatus", 5.10),
]

Data request: Find the measured pKi: item CCNCCCNCCCCNCCCNCC , target or system polyamine transport apparatus.
Data returned: 5.80

Data request: For the record C(CCNCC1CCNCC1)CNCC1CCNCC1 , what value of pKi is listed for polyamine transport apparatus?
Data returned: 5.31

###

Entries and their measured pKi follow.
Tested on: polyamine transport apparatus
Assay: Competition with radiolabeled spermidine for uptake into L1210 cells (Ki)
Assay type: cell-based, Murine
Details: tetraamine analogues; L1210 cells, radiolabeled spermidine uptake; read-out: Ki, actual (Table 1)
FYI, pKi means -log10 of a concentration in mol per litre.

# smiles_entry, endpoint_value
records = [
    ("CCNCCCCNCCCCCNCCCCNCC", 5.22),
    ("CCNCCCCNCCCCNCCCCNC(C)(C)C", 5.52),
    ("C(CCNC1CCNCC1)CNC1CCNCC1", 4.22),
    ("CCNCCCCNCCCCNCCCCNCC", 5.85),
    ("FC(F)(F)CNCCCNCCCCNCCCNCC(F)(F)F", 3.55),
    ("CCNCCCCNCCCCNCCCCN", 5.96),
    ("CNCCCNCCCCNCCCNC", 5.96),
    ("CNCCCCNCCCCNCCCCNC", 6.01),
    ("C(CCNCCC1CCNCC1)CNCCC1CCNCC1", 4.74),
]

Data request: If you can, please state the reported pKi value of CC(C)NCCCCNCCCCNCCCCNC(C)C .
Data returned: 5.09
